# studySystem: T1, human tissue factor (TF), membrane-bound on cells (human, UniProt P13726 33-295)
# T1 construct: whole, on cells; also called cellular TF
# testMethodNotes: FACS, TF transfected CHO cells (S1015-TF)
experimentalEndpoint: EC50 (nM)
Give bare numbers, in nM.

Please review the entries below; each comes with its answer.
# binder, EC50 (nM)
rows = [
    ("anti-TF HuMab 011 (antibody, V domains shown, Human monoclonal antibody from HuMab mice; also called HuMab-TF-11) VH: EVQLLESGGGLVQPGGSLRLSCAASGFTFSNYAMSWVRQAPGKGLEWVSSISGSGDYTYYTDSVKGRFTISRDNSKNTLYLQMNSLRAEDTAVYYCARSPWGYYLDSWGQGTLVTVSS VL: DIQMTQSPPSLSASAGDRVTITCRASQGISSRLAWYQQKPEKAPKSLIYAASSLQSGVPSRFSGSGSGTDFTLTISSLQPEDFATYYCQQYNSYPYTFGQGTKLEIK", 1.32),
    ("anti-TF HuMab 092-A09 (antibody, V domains shown, Human monoclonal antibody from HuMab mice) VH: EVQLLESGGGLVQPGGSLRLSCAASGFTFNNYAMSWVRQAPGKGLEWVSSISGSGGRTYYADSVKGRFTISRDNSKNTLFLQMNSLRAEDTAVYYCAKTPWGYYFDYWGQGTLVTVSS VL: DIQMTQSPSSLSASVGDRVTITCRASQGISSRLAWYQQKPEKAPKSLIYAASSLQSGVPSRFSGSGSGTDFTLTISSLQPEDFATYYCQQYNSYPYTFGQGTKLEIK", 1.32),
    ("anti-TF HuMab 025 (antibody, V domains shown, Human monoclonal antibody from HuMab mice) VH: QVQLVESGGGVVQPGRSLRLSCAASGFTFSRYAMHWVRQAPGKGLEWVAVISNDGYNDYYADSVKGRFTVSRDNSKNTLYLQMNSLRAEDTAVYYCARDGQLGRGYFDYWGQGTLVTVSS VL: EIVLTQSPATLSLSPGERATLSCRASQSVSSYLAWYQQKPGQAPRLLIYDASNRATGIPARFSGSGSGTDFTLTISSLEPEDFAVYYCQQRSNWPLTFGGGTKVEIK", 0.73),
    ("anti-TF HuMab 044 (antibody, V domains shown, Human monoclonal antibody from HuMab mice) VH: QVQLVESGGGVVQPGRSLRLSCAASGFTFSDYAMHWVRQAPGKGLEWVAVIPYDGDNKYYADSVKGRFTISRDNSKNTLYLQMNSLRAEDTAVYYCAREDWGLEVDYWGQGALVTVSS VL: AIQLTQSPSSLSASVGDRVTITCRASQGINSALAWYQQKPGKAPKLLIYDASSLESGVPSRFSGSGSGTDFTLTISSLQPEDFATYYCQQFNSYPLTFGGGTKVEIK", 2.13),
]

Now turn to the next binder.
Qu. Fill in the blank: the reported EC50 of anti-TF HuMab 109 (antibody, V domains shown, Human monoclonal antibody from HuMab mice) VH: QVQLVESGGGVVQPGRSLRLSCPASGFTFSIYAMHWVRQAPGKGLEWVAVVSNDGYNKYYADSVKGRFTISRDNSKDTLYLQMNSLRAEDTAVYYCARDGQLGRGYFDYWGQGTLVTVSS VL: EIVLTQSPATLSLSPGERAILSCRASQSVSSYLAWYQQKPGQAPRLLIYDASNRATGIPARFSGSGSGTDFTLTISSLEPEDFAVYYCQQRSNWPLTFGGGTKVEIK is ____.
Ans. 0.92
